- target_under_test: Na^+ /H^+ Exchanger of Rabbit Erythrocytes (Oryctolagus cuniculus)
- Construct: The blood was removed from the aural arteries; endogenous in cells
- Sequence (P23791 whole entry): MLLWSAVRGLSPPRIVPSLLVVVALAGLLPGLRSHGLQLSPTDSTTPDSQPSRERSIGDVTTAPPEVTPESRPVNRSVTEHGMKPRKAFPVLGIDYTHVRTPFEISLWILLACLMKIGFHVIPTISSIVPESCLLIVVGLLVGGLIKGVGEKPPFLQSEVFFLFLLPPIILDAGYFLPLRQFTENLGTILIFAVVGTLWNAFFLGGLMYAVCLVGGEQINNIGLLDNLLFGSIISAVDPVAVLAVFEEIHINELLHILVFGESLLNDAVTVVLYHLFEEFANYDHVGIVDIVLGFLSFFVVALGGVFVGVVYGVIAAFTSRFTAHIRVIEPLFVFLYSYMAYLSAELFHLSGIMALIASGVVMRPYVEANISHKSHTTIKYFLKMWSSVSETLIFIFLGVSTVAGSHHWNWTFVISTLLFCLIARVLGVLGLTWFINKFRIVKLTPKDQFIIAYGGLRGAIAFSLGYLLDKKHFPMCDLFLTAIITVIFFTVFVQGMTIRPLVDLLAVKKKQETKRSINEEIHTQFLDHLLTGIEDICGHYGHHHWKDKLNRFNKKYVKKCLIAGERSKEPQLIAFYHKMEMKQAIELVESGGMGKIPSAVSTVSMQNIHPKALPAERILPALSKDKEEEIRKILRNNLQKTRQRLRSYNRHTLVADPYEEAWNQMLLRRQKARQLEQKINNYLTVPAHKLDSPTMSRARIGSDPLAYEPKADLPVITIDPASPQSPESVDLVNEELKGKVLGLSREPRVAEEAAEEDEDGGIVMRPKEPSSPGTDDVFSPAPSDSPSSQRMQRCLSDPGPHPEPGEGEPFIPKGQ
- experiment_notes: Inhibition of the Na^+ /H^+ Exchanger of Rabbit Erythrocytes (Na^+ influx by flame photometry)
- measurement_setup: cholesterol-fed rabbits, pH 7.4, 37° C.
Structures can show the parent of a compound that is named as a salt.
Overview of recorded pIC50 for various compounds
Scale explanation: pIC50 corresponds to minus log10 of a concentration expressed in moles per litre.

The examples below pair each entry with its known result.
# query: pIC50 of entry N=C(N)NC(=O)c1cccc(C(F)(F)F)c1F [Example 2, hydrochloride]
5.70

What value of pIC50 has been recorded for this entry: N=C(N)NC(=O)c1cc(C(F)(F)F)ccc1C(F)(F)F [Example 7, hydrochloride]
6.80

New cases:
Query: pIC50; subject: N=C(N)NC(=O)c1cc(C(F)(F)F)ccc1Cl [Example 9, hydrochloride]
6.80

What pIC50 value was documented for this compound, N=C(N)NC(=O)c1ccc(C(F)(F)F)cc1F [Example 4, hydrochloride] ?
5.52
